- System: HOP-92 NSCLC
- method description: NCI tumour cell line growth inhibition, 48 h
measured endpoint: TGI (µM)
Field format: number, assumed µM, no unit text.

Q: # get_value(readout='TGI', item= O=C(c1cccs1)N1CCN(C(=O)c2cccs2)C1=S )
A: 20.7

Q: # get_value(readout='TGI', item= O=C1/C(=C/c2ccccc2)CN(C(=O)CCN2CCCC2)C/C1=C\c1ccccc1 )
A: 14.8

---

- Tested on: KM12 colon
- method description: NCI tumour cell line growth inhibition, 48 h
measured endpoint: GI50

Q: # get_value(readout='GI50', item= S=c1nc(N/N=C/c2ccco2)c2cn[nH]c2[nH]1 )
A: 24.7 µM

Q: # get_value(readout='GI50', item= COC(=O)COc1ccc(/C=C2/N=C(c3ccccc3)N(c3c(C)n(C)n(-c4ccccc4)c3=O)C2=O)cc1 )
A: 26.6 µM

Q: # get_value(readout='GI50', item= CC(C)=CCC(OC(=O)C=C(C)C)C1=CC(=O)c2c(O)ccc(O)c2C1=O (stereo not drawn) )
A: 6.61 µM

Q: # get_value(readout='GI50', item= C1CC[N-]CC1.CC(=N\O)/C(C)=N/O.CC(=N\O)/C(C)=N/O.OC1[CH-]CCCC1.[Co+2] )
A: > 100 µM

Q: # get_value(readout='GI50', item= Cc1nc2c(n1C)C(=O)c1ccccc1C2=O )
A: 59.7 µM

Q: # get_value(readout='GI50', item= COc1ccc(C(=O)NNc2nc(Cl)nc(N3CCN(C(c4ccccc4)c4ccccc4)CC3)n2)cc1 )
A: > 100 µM

Q: # get_value(readout='GI50', item= COc1ccc(C(O)c2cc3c(N)c(C(=O)Nc4cccc(Cl)c4)sc3nc2C)cc1 (stereo not drawn) )
A: 1.1 µM

Q: # get_value(readout='GI50', item= c1ccc(-c2nc(N3CCOCC3)c3c4c(sc3n2)CCCCCC4)nc1 )
A: 4.28 µM

---

Assignment: determine reported TGI for the given compounds.
- Test system: NCI-H522 lung
- method description: NCI tumour cell line growth inhibition, 48 h

Q: # get_value(readout='TGI', item= C=CCC1=C(C)C[C@@H]2CCC(=O)C=C12 )
A: > 100 µM

Q: # get_value(readout='TGI', item= Cc1c2c(c(C)c3c4c(oc13)CCCC4)C=NCC2 )
A: 31.3 µM

Q: # get_value(readout='TGI', item= CCCC(=O)N[C@H]1C2C3CC4C5CC(C42)C1(C)C53 (stereo partly specified) )
A: > 100 µM

Q: # get_value(readout='TGI', item= Nc1nc(Cl)cc(NC23CC4CC(CC(C4)C2)C3)n1 )
A: > 100 µM

Q: # get_value(readout='TGI', item= C1CC2CN(CCCN3CCOCC3)C(C1)O2 (stereo unspecified) )
A: > 100 µM

Q: # get_value(readout='TGI', item= C=C1CCC2(C#N)[C@H]3[C@H](CC[C@@H]2C)[C@@H](C)C[C@@H](CC(C)(C)NC(=O)CN2CCC2=O)[C@H]13 (stereo partly specified) )
A: 45.6 µM

Q: # get_value(readout='TGI', item= O=c1cc(N/N=C/c2ccc(F)cc2)c2cc(Cl)ccc2[nH]1 )
A: 74.3 µM

Q: # get_value(readout='TGI', item= COc1cc2c(cc1O)CC1c3c(cc(O)c(OC)c3-2)CCN1C (stereo unspecified) )
A: > 100 µM

Q: # get_value(readout='TGI', item= CN(C)CCCNc1ccc2nnn3c4ccc(O)cc4c(=O)c1c23 )
A: 19.8 µM

Q: # get_value(readout='TGI', item= O=C(Nc1ccc(-c2nc(-c3cccc(OCCN4CCOCC4)c3)c(-c3ccnc(Br)c3)[nH]2)cc1)c1ccccc1 )
A: > 100 µM

Q: # get_value(readout='TGI', item= O=c1[nH]n(Cc2ccccc2)c2ccc([N+](=O)[O-])cc12 )
A: > 100 µM
